- Test system: LOX IMVI
- TEST_PROTOCOL: NCI tumour cell line growth inhibition, 48 h
Calls of active or inactive are those of the source. No stated cut-off is given here; in the data, active = GI50 up to about 1.1 µM and inactive = higher.
Measured GI50, listed per entry.

Observe how each entry below is paired with its result.
>>> reported("COC(=O)[C@]12CSC[C@H]1C[C@H](c1ccc(N(C)C)cc1)N2")
"> 100 µM (inactive)"
>>> reported("C=C1C(=O)O[C@H]2[C@H](OC(C)=O)[C@@H](C)CCC/C(C)=C/CC[C@@]3(C)O[C@@H]3C[C@@H]12")
"1.86 µM (inactive)"
>>> reported("CCC(=O)N(c1ccccc1)C(C)CN1CCC(O)(c2cccc(C(F)(F)F)c2)CC1 (stereo not given)")
"18.9 µM (inactive)"
>>> reported("O=C1Nc2ccccc2/C1=N/Nc1ccccc1[N+](=O)[O-]")
"36.4 µM (inactive)"
>>> reported("COC(=O)CCC(C)[C@H]1CCC2C3C(C[C@H](OC(C)=O)[C@@]21C)[C@@]1(C)CCC2(C[C@H]1C[C@H]3OC(C)=O)OOC1(CCC(C(C)(C)C)CC1)OO2 (stereo not given in full)")
"5.25 µM (inactive)"
>>> reported("O=C(O)CCC(N/N=N/c1ccc(-c2nc3ccccc3[nH]2)cc1)C(=O)O (stereo not given)")
"43.1 µM (inactive)"
>>> reported("Cc1nc2ccccc2c(=O)n1NC(=O)c1ccc([N+](=O)[O-])cc1")
"> 100 µM (inactive)"
>>> reported("Cc1n(CC(C)C)c2c([n+]1C)C(=O)c1ccccc1C2=O")
"0.0746 µM (active)"

Query (compound): CC1C=CC(C(N)C(=O)O)O1 (stereo not given) ; field requested: GI50
> 100 µM (inactive)
